// GI50 lookup, one value per entry
System: COLO 205
Assay: NCI tumour cell line growth inhibition, 48 h
The source made the active and inactive calls. No stated cut-off is given here; in the data, active = GI50 up to about 1.1 µM and inactive = higher.
Property: GI50

Nc1nc(SCc2ccccc2Cl)c2[nH]cnc2n1 : 91.6 µM (inactive)
CNc1ccc([S+]([O-])Nc2ccc(OC)cc2)cc1 (stereo not given) : 29.2 µM (inactive)
CO/N=C(\C(=O)Nc1cncs1)c1csc(N)n1 : > 10 µM (inactive)
Cc1n[nH]c(=O)n1-c1cccnc1 : > 100 µM (inactive)
COc1cc(C(=O)Nc2cc(C(N)=O)cc(OC)c2OC)cc(NC(=O)/C=C/c2ccccc2)c1OC : > 100 µM (inactive)

----------
// GI50 lookup, one value per entry
Test system: MDA-MB-231
Assay: NCI tumour cell line growth inhibition, 48 h
The source made the active and inactive calls. Cut-off read from the data, not from the text of the source: active = GI50 up to about 1.1 µM and inactive = higher.
Property: GI50

C[C@@H]1C[C@H]2CC[C@H](O2)[C@H](C)C(=O)O[C@@H](C)C[C@@H]2CC[C@@H](O2)[C@@H](C)C(=O)O[C@H](C)C[C@H]2CC[C@H](O2)[C@H](C)C(=O)O[C@@H](C)C[C@@H]2CC[C@@H](O2)[C@@H](C)C(=O)O1 : 0.345 µM (active)
O=C(C/N=C(\CN(c1ccccc1)c1ccccc1)Oc1ccc(Cl)cc1Cl)n1ccnc1 : > 100 µM (inactive)
CC1(C(O)c2ccccc2)CN(C(C)(C)C)C(=O)/C1=C\Sc1ccccc1 (configuration not stated) : 53 µM (inactive)
O=C(CC(=O)N1N=C(N(c2ccccc2)c2ccccc2)CC1c1ccccc1)Nc1ccccc1 (configuration not stated) : 7.82 µM (inactive)
Cn1c2c(c3ccccc31)CCN=C2C1CCCOC1=O (configuration not stated) : > 100 µM (inactive)
CN(C)c1ccc(-c2c(C#N)c(-c3ccccc3)n(NS(=O)(=O)c3ccccc3)c(=O)c2C#N)cc1 : 88.1 µM (inactive)
O=C(CCCC(=O)N1CC(CCl)c2ccc([N+](=O)[O-])cc21)N1CC(CCl)c2ccc([N+](=O)[O-])cc21 (configuration not stated) : > 100 µM (inactive)

----------
Test system: OVCAR-8
Test: NCI tumour cell line growth inhibition, 48 h
The source made the active and inactive calls. No stated cut-off is given here; in the data, active = GI50 up to about 1.1 µM and inactive = higher.
Outcomes: active, inactive

CC(NC(=O)C(NC(=O)C(NC(=O)C(F)(F)F)C(C)C)C(C)C)C(=O)Oc1c(Cl)c(Cl)c(Cl)c(Cl)c1Cl (stereo not given) : inactive
O/N=C1/Nc2cc(Cl)ccc2C(=S)N2CSCC12 (stereo not given) : inactive
COc1ccc(Nc2nc3c([nH]2)c(=O)n(C)c(=O)n3C)cc1 : inactive
Cc1cc(-c2ccc(C(=O)C(Cl)(Cl)Cl)[nH]2)on1 : inactive
COc1cc(/C=C/c2cc(=O)cc(/C=C/c3ccc(O)c(OC)c3)o2)ccc1O : inactive
COc1ccc(NCc2cnc3nc(N)nc(N)c3c2C)cc1 : active
C#CCC1(C(=O)OCC)C(=O)c2ccccc2N(C)C1=O (stereo not given) : inactive
Cc1cc(-c2nc3c(O)cccc3s2)ccc1N : inactive
Cc1c[nH]c(C(=O)O)c1-c1ccc2c(-c3ccccc3)nc3ccccc3n12 : inactive
CCC1(OC(=O)CN2CCN(CCO)CC2)C(=O)OCc2c1cc1n(c2=O)Cc2cc3ccccc3nc2-1 (stereo not given) : active

----------
Tested on: SF-268
Test: NCI tumour cell line growth inhibition, 48 h
The source made the active and inactive calls. Rule as the data show it: active = GI50 up to about 1.1 µM and inactive = higher.
Outcomes: YES (active), NO (inactive)

O=S(=O)(O)c1ccc(/N=N/c2ccc(/N=N/c3c(O)c(S(=O)(=O)O)cc4cc(S(=O)(=O)O)ccc34)cc2)cc1 : NO
O=C(CC(=O)N1N=C(N(c2ccccc2)c2ccccc2)CC1c1ccccc1)Nc1ccccc1 (stereo not drawn) : NO
O=C(O)Cc1ccc(/N=N/c2c(O)c(C(=O)O)cc3ccccc23)cc1 : NO
O=C(O)CCC(NC(=O)c1ccc(CNc2nc3cc(C(F)(F)F)ccc3nc2C(=O)O)cc1)C(=O)O (stereo not drawn) : NO
NS(=O)(=O)c1ccc(CNc2nc(-c3cccs3)nc3ccc(I)cc23)cc1 : NO
CC(C)(C)C(=O)CP(=O)(O)O : NO
O=C(CCCC(=O)N1CC(CCl)c2ccc([N+](=O)[O-])cc21)N1CC(CCl)c2ccc([N+](=O)[O-])cc21 (stereo not drawn) : NO
CC[C@@]1(O)C(=O)OCc2c1cc1n(c2=O)Cc2c-1nc1ccccc1c2/C=N\NC(=O)C(N)Cc1c[nH]c2ccccc12 (stereo partly drawn) : YES
O=C(CCCn1ccnc1[N+](=O)[O-])NCCn1cnc([N+](=O)[O-])n1 : NO
CCOC(=O)c1c(N2CCCC2)ncn(Cc2ccccc2)c1=S : NO
CSC1=NN(C(C)=O)C(C(OC(C)=O)C(OC(C)=O)C(OC(C)=O)C(COC(C)=O)OC(C)=O)S1 (stereo not drawn) : NO
O=C1/C(=C/c2ccccc2)CN(C(=O)CCN2CCCC2)C/C1=C\c1ccccc1 : NO
CC(=O)OCCN(C1=NCCN1)/[N+](C=c1ccc(=C=[N-])cc1)=C/c1ccc(C#N)cc1 : NO
CN(C)NC(=O)NC12CC3CC(CC(C3)C1)C2 : NO
Clc1ccc(/N=C2\c3ccccc3CN2c2ccc(Cl)cc2)cc1 : NO
C=CCn1c(=O)n(CC=C)c(=O)n(CC=C)c1=O : NO
O=C(/C=C/c1ccc2c(c1)OCO2)CC(=O)/C=C/c1ccc2c(c1)OCO2 : NO
Cc1c(/C=N/N(C)C)oc2c1cc(O)c1ncccc12 : NO
C=Cc1ccccc1C1C(C(=O)OCC)=C(C)N=C2OC(C(=O)OC)C(=O)N21 (stereo not drawn) : NO
COC(=O)c1nn(C(=N)c2ccc(Cl)cc2)c2c1CCCCC2 : NO
CC(C)OC(=O)[C@H]1ON2O[C@H](O[C@@H]3CCCC[C@H]3c3ccccc3)C([Si](C)(C)c3ccccc3)[C@H]3OC(=O)[C@@H]1C32 (stereo partly drawn) : NO
C=C[C@]1(C)CC[C@]2(C)C(CC[C@@]3(C)C2C[C@H](O)[C@H](O)[C@@]3(C)O)C1 (stereo partly drawn) : NO
CN1C(=O)C2CCCC(=O)N2c2cccnc21 (stereo not drawn) : NO
CC(C)[C@@H]1CC[C@@H](C)C[C@H]1OC(=O)/C=C1/C2C=CC(O2)C1C(=O)O[C@@H]1C[C@H](C)CC[C@H]1C(C)C (stereo partly drawn) : NO
Cc1c(NC(=O)c2cc([N+](=O)[O-])cc([N+](=O)[O-])c2)c(=O)n(-c2ccccc2)n1C : NO
Cc1ccc(/C=C2\CCCCC2=O)cc1 : NO
CC(=O)c1ccc2c3c1[C@H]1O[C@H]1c1cccc(c1-3)[C@@H]1O[C@H]21 : NO
O=[N+]([O-])c1cc(Cl)c(Cl)cc1[N+](=O)[O-] : NO
Nc1cnc2c(c1)c(=O)nc1n2CCS1 : NO
COc1ccc2ccccc2c1CN1CCOCCOCCN(Cc2c(OC)ccc3ccccc23)CCOCCOCC1 : NO
CC1(C(O)c2ccccc2)CN(C(C)(C)C)C(=O)/C1=C\Sc1ccccc1 (stereo not drawn) : NO
CC1(C)C2CCC(CN)(C2)C1N (stereo not drawn) : NO
COc1cc(OC)cc(C(=O)CC(=O)c2cc(OC)cc(OC)c2)c1 : NO
Cc1cc(C)c2c(O)cc(-c3ccc(Cl)cc3)nc2n1 : NO
Cc1ccc(SCC(OCn2cnc3c(Cl)nc(N)nc32)[C@H](C)F)cc1 (stereo partly drawn) : NO
CC12C(=CC(=O)CC1SCCS(=O)(=O)O)C(C#N)=C(N)N2c1ccc(Cl)c(Cl)c1 (stereo not drawn) : NO
CC(=O)O[C@H]1C(=O)[C@@]2(C)C([C@H](OC(=O)c3ccccc3)[C@]3(O)C[C@H](OC(=O)[C@H](O)[C@H](NC(=O)c4ccccc4)c4ccc(Cl)cc4)C(C)=C1C3(C)C)C1(OC(C)=O)CO[C@@H]1C[C@@H]2O (stereo partly drawn) : YES
CCN(CC)c1nc(NC2CCCCC2)c2nc(N(CC)CC)nc(NC3CCCCC3)c2n1 : NO
